Values from the NIST ThermoML archive (doi:10.1021/acs.jced.9b00442)

# Conditions: 294.15 K; 100 kPa; Liquid; Vibrating tube method
Reported Property: mass density (kg/m3)
Numeric answer only, unit kg/m3 assumed.

// below: answered compounds
Smiles Str	mass density, kg/m3
CC[N+](C)(C)CCCO.O=S(=O)([N-]S(=O)(=O)C(F)(F)F)C(F)(F)F	1466.9
CCCC[N+](CCO)(CCO)CCO.O=S(=O)([N-]S(=O)(=O)C(F)(F)F)C(F)(F)F	1460.1
CC[N+](C)(C)CCOC.O=S(=O)([N-]S(=O)(=O)C(F)(F)F)C(F)(F)F	1434.8
CC[N+](C)(CCO)CCO.O=S(=O)([N-]S(=O)(=O)C(F)(F)F)C(F)(F)F	1519
C[N+](CCO)(CCO)CCO.O=S(=O)([N-]S(=O)(=O)C(F)(F)F)C(F)(F)F	1570.4
CCCC[N+](C)(C)CC.O=S(=O)([N-]S(=O)(=O)C(F)(F)F)C(F)(F)F	1375.2

Moving on to the next compound.
Entry `CC[N+](CCO)(CCO)CCO.O=S(=O)([N-]S(=O)(=O)C(F)(F)F)C(F)(F)F` , mass density reported as 1533.2

====

# Conditions: 344.15 K; 100 kPa; Liquid; Vibrating tube method
Reported Property: mass density (kg/m3)
Numeric answer only, unit kg/m3 assumed.

// below: answered molecules
Smiles Str	Unit Spec	mass density
CC[N+](C)(CCO)CCO.O=S(=O)([N-]S(=O)(=O)C(F)(F)F)C(F)(F)F	kg/m3	1474.6
CC[N+](CCO)(CCO)CCO.O=S(=O)([N-]S(=O)(=O)C(F)(F)F)C(F)(F)F	kg/m3	1489.7

Moving on to the next molecule.
Entry `C[N+](CCO)(CCO)CCO.O=S(=O)([N-]S(=O)(=O)C(F)(F)F)C(F)(F)F` , mass density reported as 1525.8

====

Below, each entry is listed alongside its reported mass density.
# Conditions: 319.15 K; 100 kPa; Liquid; Vibrating tube method
Numeric answer only, unit kg/m3 assumed.

Smiles Str	Reported Property	Unit Spec	Measured Result
C[N+](CCO)(CCO)CCO.O=S(=O)([N-]S(=O)(=O)C(F)(F)F)C(F)(F)F	mass density	kg/m3	1547.9
CC[N+](C)(C)CCOC.O=S(=O)([N-]S(=O)(=O)C(F)(F)F)C(F)(F)F	mass density	kg/m3	1411.4
CCCC[N+](CCO)(CCO)CCO.O=S(=O)([N-]S(=O)(=O)C(F)(F)F)C(F)(F)F	mass density	kg/m3	1438.4
CCCC[N+](C)(C)CC.O=S(=O)([N-]S(=O)(=O)C(F)(F)F)C(F)(F)F	mass density	kg/m3	1353.2
CC[N+](C)(C)CCCO.O=S(=O)([N-]S(=O)(=O)C(F)(F)F)C(F)(F)F	mass density	kg/m3	1445.1
CC[N+](C)(CCO)CCO.O=S(=O)([N-]S(=O)(=O)C(F)(F)F)C(F)(F)F	mass density	kg/m3	1496.3

Entry `CC[N+](CCO)(CCO)CCO.O=S(=O)([N-]S(=O)(=O)C(F)(F)F)C(F)(F)F` , mass density reported as 1511.3

====

# Conditions: 303.15 K; 100 kPa; Liquid; Frequency=0.0006 MHz; Alternating current cell with electrodes
Decision: electrical conductivity compared against 0.2 S/m; not below it gives Criterion met, below it gives Criterion not met.

Here are 2 molecules together with their reported answers.
Smiles Str	Label Value
CC[N+](C)(CCO)CCO.O=S(=O)([N-]S(=O)(=O)C(F)(F)F)C(F)(F)F	Criterion not met
CC[N+](C)(C)CCOC.O=S(=O)([N-]S(=O)(=O)C(F)(F)F)C(F)(F)F	Criterion met

Reported electrical conductivity at or above 0.2 S/m? `CC[N+](CCO)(CCO)CCO.O=S(=O)([N-]S(=O)(=O)C(F)(F)F)C(F)(F)F`
Criterion not met

Reported electrical conductivity at or above 0.2 S/m? `CCCC[N+](C)(C)CC.O=S(=O)([N-]S(=O)(=O)C(F)(F)F)C(F)(F)F`
Criterion met

====

Below, each entry is listed alongside its reported mass density.
# Conditions: 363.15 K; 100 kPa; Liquid; Vibrating tube method
Numbers after ± are expanded uncertainties.
For clarity, give the value followed by its unit.

Smiles Str	Reported Property	Measured Result
C[N+](CCO)(CCO)CCO.O=S(=O)([N-]S(=O)(=O)C(F)(F)F)C(F)(F)F	mass density	1509.3 ± 1.2 kg/m3
CC[N+](C)(CCO)CCO.O=S(=O)([N-]S(=O)(=O)C(F)(F)F)C(F)(F)F	mass density	1458.4 ± 1.2 kg/m3
CCCC[N+](CCO)(CCO)CCO.O=S(=O)([N-]S(=O)(=O)C(F)(F)F)C(F)(F)F	mass density	1401.1 ± 1.1 kg/m3
CC[N+](CCO)(CCO)CCO.O=S(=O)([N-]S(=O)(=O)C(F)(F)F)C(F)(F)F	mass density	1473.7 ± 1.2 kg/m3

Entry `CC[N+](C)(C)CCCO.O=S(=O)([N-]S(=O)(=O)C(F)(F)F)C(F)(F)F` , mass density reported as 1407.4 ± 1.1 kg/m3

Entry `CC[N+](C)(C)CCOC.O=S(=O)([N-]S(=O)(=O)C(F)(F)F)C(F)(F)F` , mass density reported as 1371.5 ± 1.1 kg/m3

Entry `CCCC[N+](C)(C)CC.O=S(=O)([N-]S(=O)(=O)C(F)(F)F)C(F)(F)F` , mass density reported as 1315.7 ± 1.1 kg/m3

====

# Conditions: 318.15 K; 100 kPa; Liquid; Concentric cylinders viscometry
So basically: is viscosity under 200 mPa·s? Then label 1. Not under? Then label 0.

Smiles Str	Label Value
CC[N+](C)(C)CCOC.O=S(=O)([N-]S(=O)(=O)C(F)(F)F)C(F)(F)F	label 1
C[N+](CCO)(CCO)CCO.O=S(=O)([N-]S(=O)(=O)C(F)(F)F)C(F)(F)F	label 1
CCCC[N+](CCO)(CCO)CCO.O=S(=O)([N-]S(=O)(=O)C(F)(F)F)C(F)(F)F	label 0
CC[N+](C)(CCO)CCO.O=S(=O)([N-]S(=O)(=O)C(F)(F)F)C(F)(F)F	label 1

Decide: viscosity of `CCCC[N+](C)(C)CC.O=S(=O)([N-]S(=O)(=O)C(F)(F)F)C(F)(F)F` strictly below 200 mPa·s?
label 1

Decide: viscosity of `CC[N+](C)(C)CCCO.O=S(=O)([N-]S(=O)(=O)C(F)(F)F)C(F)(F)F` strictly below 200 mPa·s?
label 1

Decide: viscosity of `CC[N+](CCO)(CCO)CCO.O=S(=O)([N-]S(=O)(=O)C(F)(F)F)C(F)(F)F` strictly below 200 mPa·s?
label 0

====

# Conditions: 311.15 K; 100 kPa; Liquid; Vibrating tube method
Reported Property: mass density (kg/m3)
Numeric answer only, unit kg/m3 assumed.

// below: answered compounds
Smiles Str	Reported Property	Measured Result
C[N+](CCO)(CCO)CCO.O=S(=O)([N-]S(=O)(=O)C(F)(F)F)C(F)(F)F	mass density	1555.1
CCCC[N+](CCO)(CCO)CCO.O=S(=O)([N-]S(=O)(=O)C(F)(F)F)C(F)(F)F	mass density	1445.4
CCCC[N+](C)(C)CC.O=S(=O)([N-]S(=O)(=O)C(F)(F)F)C(F)(F)F	mass density	1360.2
CC[N+](C)(C)CCCO.O=S(=O)([N-]S(=O)(=O)C(F)(F)F)C(F)(F)F	mass density	1452
CC[N+](CCO)(CCO)CCO.O=S(=O)([N-]S(=O)(=O)C(F)(F)F)C(F)(F)F	mass density	1518.4

Entry `CC[N+](C)(CCO)CCO.O=S(=O)([N-]S(=O)(=O)C(F)(F)F)C(F)(F)F` , mass density reported as 1503.5

Entry `CC[N+](C)(C)CCOC.O=S(=O)([N-]S(=O)(=O)C(F)(F)F)C(F)(F)F` , mass density reported as 1418.8

====

# Conditions: 314.15 K; 100 kPa; Liquid; Vibrating tube method
Reported Property: mass density (kg/m3)
Numeric answer only, unit kg/m3 assumed.

Smiles Str	Unit Spec	Measured Result
CCCC[N+](C)(C)CC.O=S(=O)([N-]S(=O)(=O)C(F)(F)F)C(F)(F)F	kg/m3	1357.6
CC[N+](C)(CCO)CCO.O=S(=O)([N-]S(=O)(=O)C(F)(F)F)C(F)(F)F	kg/m3	1500.8
C[N+](CCO)(CCO)CCO.O=S(=O)([N-]S(=O)(=O)C(F)(F)F)C(F)(F)F	kg/m3	1552.4
CCCC[N+](CCO)(CCO)CCO.O=S(=O)([N-]S(=O)(=O)C(F)(F)F)C(F)(F)F	kg/m3	1442.8
CC[N+](C)(C)CCOC.O=S(=O)([N-]S(=O)(=O)C(F)(F)F)C(F)(F)F	kg/m3	1416

Entry `CC[N+](C)(C)CCCO.O=S(=O)([N-]S(=O)(=O)C(F)(F)F)C(F)(F)F` , mass density reported as 1449.4

Entry `CC[N+](CCO)(CCO)CCO.O=S(=O)([N-]S(=O)(=O)C(F)(F)F)C(F)(F)F` , mass density reported as 1515.7
